Where do these numbers come from? They come from ChEMBL document CHEMBL1177767.

# run_description: Oral bioavailability in CD rat at 1 mg/kg after 7 hrs by LC-MS/MS analysis
# Format: ADME, organism-based
# applied_conditions: in vivo
measurement_label: bioavailability
Field: value (include unit after the number)

Recorded bioavailability for Cc1ccccc1C(=O)c1c[nH]c(C(=O)NCc2ccco2)c1 , please?
18%

---

# run_description: Half life in CD rat at 1 mg/kg, iv and 1 mg/kg, po after 7 hrs by LC-MS/MS analysis
# Assay type: ADME, organism-based
# applied_conditions: in vivo
measurement_label: half-life (min)
The figure you give is taken to be in min; do not add the unit.

// half-life lookup, key: Cc1ccccc1C(=O)c1c[nH]c(C(=O)NCc2ccco2)c1
9.6

---

# run_description: Clearance in CD rat at 1 mg/kg, iv and 1 mg/kg, po after 7 hrs by LC-MS/MS analysis
# Format: ADME, organism-based
# applied_conditions: in vivo
measurement_label: clearance
A bare number is not enough; add the unit after it.

Any idea what its clearance is? The compound is Cc1ccccc1C(=O)c1c[nH]c(C(=O)NCc2ccco2)c1
56 mL/min/kg

---

# run_description: Apparent volume of distribution at steady state in CD rat at 1 mg/kg, iv and 1 mg/kg, po after 7 hrs by LC-MS/MS analysis
# Type: ADME, organism-based
# applied_conditions: in vivo, read-out: Vdss
measurement_label: Vd (L/kg)
Number in L/kg, nothing else.

Value lookup for Vd; key = Cc1ccccc1C(=O)c1c[nH]c(C(=O)NCc2ccco2)c1
0.931
